# target_of_assay: T1, human IL-36γ, truncated (human, UniProt Q9NZH8 18-169)
# T1 construct: Bought from R&D Systems (cat 6835-IL); also called human IL-36 gamma; hIL-36gamma
# T1 sequence: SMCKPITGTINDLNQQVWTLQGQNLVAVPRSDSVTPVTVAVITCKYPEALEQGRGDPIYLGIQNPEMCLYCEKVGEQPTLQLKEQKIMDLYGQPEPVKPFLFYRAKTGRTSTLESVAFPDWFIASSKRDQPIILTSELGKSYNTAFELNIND
# experimental_protocol: SPR, Biacore T200, antibody on chip, IL-36 as analyte, 1:1 Langmuir fit
measured_endpoint: pKd
# pKd = -log10(concentration in molar units)

144L124B (antibody, V domains shown, Mouse monoclonal from hybridoma; mouse IgG heavy and lambda light chain; Same VH and VL as 144L180A) VH: EVQLQQSGAELVKPGASVKLSCTASGFNIKDTYIYWVKQRPEQGLEWIGRIDPANGYTRYDPKFQGKATMTADTSSNTAYLQLSSLTSEDTAVYYCARYEYYDSSFYFDYWGQGTTLTVSS VL: QAVVTQESALTTSPGETVTLTCRSSTGAVTTSNYANWVQEKPDHLFTGLIGGTNNRAPGVPARFSGSLIGDKAALTITGAQTEDEAIYFCALWYSNHLVFGGGTKLTVL yielded pKd of 9.08
